Target: COVID S1 RBD Fc fusion (Antigen 1) (SARS-CoV-2), P0DTC2
Assay: phage ELISA
Conditions: remark: other sources report otherwise
Provide the recorded specificity ELISA, fold over background (fold over background) for the entries that follow.

Looking for the measured specificity ELISA, fold over background (fold over background) of SARS-CoV-2 variant 1-5 (antibody, V domains shown) VH: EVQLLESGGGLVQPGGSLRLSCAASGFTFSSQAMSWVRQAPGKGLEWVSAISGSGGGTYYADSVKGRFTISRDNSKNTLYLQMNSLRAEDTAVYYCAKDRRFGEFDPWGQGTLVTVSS VL: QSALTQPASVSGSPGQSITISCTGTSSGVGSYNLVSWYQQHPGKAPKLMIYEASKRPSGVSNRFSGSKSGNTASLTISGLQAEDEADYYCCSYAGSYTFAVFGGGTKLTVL , can you help?
1.6

Repeat with SARS-CoV-2 variant 1-3 (antibody, V domains shown) VH: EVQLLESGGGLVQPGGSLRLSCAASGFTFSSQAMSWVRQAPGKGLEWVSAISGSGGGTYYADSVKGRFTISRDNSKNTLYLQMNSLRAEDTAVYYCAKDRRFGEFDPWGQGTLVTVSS VL: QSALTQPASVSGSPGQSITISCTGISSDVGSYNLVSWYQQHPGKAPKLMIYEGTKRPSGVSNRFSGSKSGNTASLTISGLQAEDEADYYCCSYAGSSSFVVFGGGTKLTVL
1.8
